- CONDITION NOTES: 393.15 K; 5000 kPa; Liquid
± gives the expanded uncertainty stated by the source.

COMPOUND	mass density
CCCCCCCCn1cc[n+](C)c1.O=S(=O)([N-]S(=O)(=O)C(F)(F)F)C(F)(F)F	1241 ± 3 kg/m3
CCn1cc[n+](C)c1.F[B-](F)(F)F [1-ethyl-3-methylimidazolium tetrafluoroborate]	1232 ± 3 kg/m3
CCn1cc[n+](C)c1.O=S(=O)([N-]S(=O)(=O)C(F)(F)F)C(F)(F)F	1428 ± 4 kg/m3
CCCCCCCn1cc[n+](C)c1.O=S(=O)([N-]S(=O)(=O)C(F)(F)F)C(F)(F)F	1266 ± 3 kg/m3

* * *

- CONDITION NOTES: 293.15 K; 7500 kPa; Liquid
± gives the expanded uncertainty stated by the source.
READOUT KIND: mass density

COMPOUND	EXPERIMENTAL RESULT
CCn1cc[n+](C)c1.O=S(=O)([N-]S(=O)(=O)C(F)(F)F)C(F)(F)F	1531 ± 5 kg/m3
CCn1cc[n+](C)c1.F[B-](F)(F)F [1-ethyl-3-methylimidazolium tetrafluoroborate]	1308 ± 3 kg/m3
CCCCCCCCn1cc[n+](C)c1.O=S(=O)([N-]S(=O)(=O)C(F)(F)F)C(F)(F)F	1333 ± 4 kg/m3
CCCCCCCn1cc[n+](C)c1.O=S(=O)([N-]S(=O)(=O)C(F)(F)F)C(F)(F)F	1358 ± 4 kg/m3

* * *

- CONDITION NOTES: 343.15 K; 2000 kPa; Liquid
READOUT KIND: mass density (kg/m3)

COMPOUND	VALUE UNIT	EXPERIMENTAL RESULT
CCn1cc[n+](C)c1.F[B-](F)(F)F [1-ethyl-3-methylimidazolium tetrafluoroborate]	kg/m3	1265
CCCCCCCCn1cc[n+](C)c1.O=S(=O)([N-]S(=O)(=O)C(F)(F)F)C(F)(F)F	kg/m3	1279
CCCCCCCn1cc[n+](C)c1.O=S(=O)([N-]S(=O)(=O)C(F)(F)F)C(F)(F)F	kg/m3	1305
CCn1cc[n+](C)c1.O=S(=O)([N-]S(=O)(=O)C(F)(F)F)C(F)(F)F	kg/m3	1473

* * *

- CONDITION NOTES: 343.15 K; 100 kPa; Liquid
Consider the following compounds and their measured mass density readings.

COMPOUND	VALUE UNIT	mass density
CCCCCCCn1cc[n+](C)c1.O=S(=O)([N-]S(=O)(=O)C(F)(F)F)C(F)(F)F	kg/m3	1304
CCCCCCCCn1cc[n+](C)c1.O=S(=O)([N-]S(=O)(=O)C(F)(F)F)C(F)(F)F	kg/m3	1278
CCn1cc[n+](C)c1.O=S(=O)([N-]S(=O)(=O)C(F)(F)F)C(F)(F)F	kg/m3	1472
CCn1cc[n+](C)c1.F[B-](F)(F)F [1-ethyl-3-methylimidazolium tetrafluoroborate]	kg/m3	1264

* * *

- CONDITION NOTES: 393.15 K; 30000 kPa; Liquid
READOUT KIND: mass density (kg/m3)

COMPOUND	EXPERIMENTAL RESULT
CCCCCCCn1cc[n+](C)c1.O=S(=O)([N-]S(=O)(=O)C(F)(F)F)C(F)(F)F	1290
CCCCCCCCn1cc[n+](C)c1.O=S(=O)([N-]S(=O)(=O)C(F)(F)F)C(F)(F)F	1266
CCn1cc[n+](C)c1.F[B-](F)(F)F [1-ethyl-3-methylimidazolium tetrafluoroborate]	1246
CCn1cc[n+](C)c1.O=S(=O)([N-]S(=O)(=O)C(F)(F)F)C(F)(F)F	1453
